experimental-context: 368.15 K; 101.33 kPa; Liquid; Concentric cylinders viscometry
reported-property: viscosity (mPa·s)
Give the value in mPa·s but do not write mPa·s after it.

| molecule | reported-property | observed-result |
| --- | --- | --- |
| COCC[N+]1(C)CCCC1.O=S(=O)([N-]S(=O)(=O)C(F)(F)F)C(F)(F)F | viscosity | 7.94 |

Query viscosity for CCCC[N+]1(C)CCCC1.FC(F)(F)C(F)(F)[P-](F)(F)(F)(C(F)(F)C(F)(F)F)C(F)(F)C(F)(F)F
14.68

Query viscosity for CCCCCCCCCCCCCC[P+](CCCCCC)(CCCCCC)CCCCCC.FC(F)(F)C(F)(F)[P-](F)(F)(F)(C(F)(F)C(F)(F)F)C(F)(F)C(F)(F)F
20.09

Query viscosity for CCCCn1cc[n+](C)c1C.O=S(=O)([N-]S(=O)(=O)C(F)(F)F)C(F)(F)F
9.794

Query viscosity for CCCCCCOS(=O)(=O)[O-].CC[n+]1ccn(C)c1 [3-ethyl-1-methyl-1H-imidazolium hexyl sulfate]
19.11

Query viscosity for CCCC[N+]1(C)CCCC1.O=S(=O)([O-])C(F)(F)F [1-butyl-1-methylpyrrolidinium trifluoromethanesulfonate]
14.48

Query viscosity for CCCC[N+]1(C)CCCC1.O=S(=O)([N-]S(=O)(=O)C(F)(F)F)C(F)(F)F
9.32

Query viscosity for CCOS(=O)(=O)[O-].CCn1cc[n+](C)c1 [1-ethyl-3-methylimidazolium ethyl sulfate]
10.52

* * *

Reported mass density values are given for each entry in this list.
experimental-context: 358.15 K; 101.33 kPa; Liquid; Vibrating tube method
± gives the expanded uncertainty stated by the source.

Query mass density for CCCCCCCCCCCCCC[P+](CCCCCC)(CCCCCC)CCCCCC.FC(F)(F)C(F)(F)[P-](F)(F)(F)(C(F)(F)C(F)(F)F)C(F)(F)C(F)(F)F
1132.7 ± 1.4 kg/m3

Query mass density for CCOS(=O)(=O)[O-].CCn1cc[n+](C)c1 [1-ethyl-3-methylimidazolium ethyl sulfate]
1197.2 ± 1.5 kg/m3

Query mass density for CCCC[N+]1(C)CCCC1.O=S(=O)([O-])C(F)(F)F [1-butyl-1-methylpyrrolidinium trifluoromethanesulfonate]
1209.7 ± 1.6 kg/m3

* * *

experimental-context: 298.15 K; 101.33 kPa; Liquid; Concentric cylinders viscometry
Hi, to clarify the labels: YES covers viscosity from 100 mPa·s upward, NO covers anything below 100 mPa·s.

Please review the following examples before continuing.
| compound | label-value |
| --- | --- |
| CCCC[N+]1(C)CCCC1.O=S(=O)([O-])C(F)(F)F [1-butyl-1-methylpyrrolidinium trifluoromethanesulfonate] | YES |
| CCCC[N+]1(C)CCCC1.FC(F)(F)C(F)(F)[P-](F)(F)(F)(C(F)(F)C(F)(F)F)C(F)(F)C(F)(F)F | YES |
| CCCC[N+]1(C)CCCC1.O=S(=O)([N-]S(=O)(=O)C(F)(F)F)C(F)(F)F | NO |

Next up:
Test whether the compound CCCCCCOS(=O)(=O)[O-].CC[n+]1ccn(C)c1 [3-ethyl-1-methyl-1H-imidazolium hexyl sulfate] records viscosity of 100 mPa·s or higher.
YES

* * *

Reported mass density values are given for each entry in this list.
experimental-context: 333.15 K; 101.33 kPa; Liquid; Vibrating tube method
Numbers after ± are expanded uncertainties.

Solved cases below.
| compound | mass density |
| --- | --- |
| CCCCn1cc[n+](C)c1C.O=S(=O)([N-]S(=O)(=O)C(F)(F)F)C(F)(F)F | 1387.3 ± 1.9 kg/m3 |
| CCOS(=O)(=O)[O-].CCn1cc[n+](C)c1 [1-ethyl-3-methylimidazolium ethyl sulfate] | 1214 ± 1.6 kg/m3 |

Query mass density for CCCC[N+]1(C)CCCC1.FC(F)(F)C(F)(F)[P-](F)(F)(F)(C(F)(F)C(F)(F)F)C(F)(F)C(F)(F)F
1546.6 ± 2.2 kg/m3
